Target: hP2X3 (human Purinergic P2X receptors subtype 3), clone B (Homo sapiens)
Assay: hP2X3 FLIPR calcium (Fluo-4) antagonist assay, clone B
Settings: Human P2X3 FLIPR Clone B IC50 (nM), RLE cells expressing hP2X3 clone B (NM_002559); agonist 500 nM α,β-methylene-ATP
observedProperty: IC50 (nM)

1: CC(=O)N1CCN(c2nc3c(c(N4CCCC4c4ccc5ncccc5c4)n2)CN(C(C)C)C3=O)CC1 (single isomer, unassigned) [Example 284]
2: CCC(c1ccccc1)C1CCCN1c1nc(N2CCN(C(C)=O)CC2)nc2c1CN(C(C)C)C2=O (stereo not drawn)
3: CCC(C)N1Cc2c(NCc3cc4ccccc4cn3)nc(N3CCN(C(C)=O)CC3)nc2C1=O (single isomer, unassigned; (-)) [Example 311]
Query block: Rank the listed compounds, smallest IC50 first and largest last. Order the labels as requested and give them as your answer.
Result block: 3, 2, 1

###

Target: UniProt:P56373
Test: hP2X3 FLIPR calcium (Fluo-4) antagonist assay, clone B
Conditions: Human P2X3 FLIPR Clone B IC50 (nM), RLE cells expressing hP2X3 clone B (NM_002559); agonist 500 nM α,β-methylene-ATP
observedProperty: IC50 (nM)

compound	quantitativeReadout
CC(=O)N1CCN(c2nc(NC(C)C3COc4ccccc4O3)c3c(n2)C(=O)N(C(C)C)C3)CC1 (single isomer, unassigned) [Example 179]	190

a: CC(C)N1Cc2c(NC(C)(C)Cc3ccc(Cl)cc3)nc(N3CCN(C(=O)C(C)(C)C)CC3)nc2C1=O
b: CC(=O)N1CCN(c2nc3c(c(N(Cc4ccc(F)cc4)C4CCCC4)n2)CN(C(C)C)C3=O)CC1
c: CC(=O)N1CCN(c2nc(N[C@H](C)c3ccc(C)c(C)c3)c3c(n2)C(=O)N(C(C)C)C3)CC1
Query block: Write the entries in order, lowest recorded IC50 first. Order the labels as requested and give them as your answer.
Result block: c, b, a

###

Molecular target: hP2X3 (human Purinergic P2X receptors subtype 3), clone B (Homo sapiens, UniProt P56373)
Assay: hP2X3 FLIPR calcium (Fluo-4) antagonist assay, clone B
Conditions: Human P2X3 FLIPR Clone B IC50 (nM), RLE cells expressing hP2X3 clone B (NM_002559); agonist 500 nM α,β-methylene-ATP
observedProperty: IC50 (nM)

A: CC(=O)N1CCN(c2nc(NCc3cn4ccccc4n3)c3c(n2)C(=O)N(C(C)C)C3)CC1
B: CC(=O)N1CCN(c2nc(N[C@H](C)c3ccc(F)c(C(F)(F)F)c3)c3c(n2)C(=O)N(C(C)C)C3)CC1
C: CC(=O)N1CCN(c2nc(N[C@H](C)c3ccc(C(F)(F)F)c(F)c3)c3c(n2)C(=O)N(C(C)C)C3)CC1
D: CC(C)N1Cc2c(NCc3cnc4ccccc4c3)nc(N3CCOCC3)nc2C1=O
Query block: Rank the listed compounds, smallest IC50 first and largest last. Order the labels as requested and give them as your answer.
Result block: B, C, A, D

###

Target: rat P2X2/3 (rat P2X3 co-expressed with rat P2X2) (Rattus norvegicus, UniProt P49653+P49654)
Sequence (P49654 whole entry): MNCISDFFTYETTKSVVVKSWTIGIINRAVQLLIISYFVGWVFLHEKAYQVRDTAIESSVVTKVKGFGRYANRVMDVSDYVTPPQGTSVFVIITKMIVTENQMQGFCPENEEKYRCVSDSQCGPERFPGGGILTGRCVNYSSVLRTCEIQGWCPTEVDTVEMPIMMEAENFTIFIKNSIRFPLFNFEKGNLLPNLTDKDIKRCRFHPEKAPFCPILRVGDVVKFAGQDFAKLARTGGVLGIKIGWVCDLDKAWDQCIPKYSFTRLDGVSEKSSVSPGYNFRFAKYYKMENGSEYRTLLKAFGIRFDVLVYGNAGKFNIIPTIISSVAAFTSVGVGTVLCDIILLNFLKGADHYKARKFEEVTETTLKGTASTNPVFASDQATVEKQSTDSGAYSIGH
Sequence (P49653 whole entry): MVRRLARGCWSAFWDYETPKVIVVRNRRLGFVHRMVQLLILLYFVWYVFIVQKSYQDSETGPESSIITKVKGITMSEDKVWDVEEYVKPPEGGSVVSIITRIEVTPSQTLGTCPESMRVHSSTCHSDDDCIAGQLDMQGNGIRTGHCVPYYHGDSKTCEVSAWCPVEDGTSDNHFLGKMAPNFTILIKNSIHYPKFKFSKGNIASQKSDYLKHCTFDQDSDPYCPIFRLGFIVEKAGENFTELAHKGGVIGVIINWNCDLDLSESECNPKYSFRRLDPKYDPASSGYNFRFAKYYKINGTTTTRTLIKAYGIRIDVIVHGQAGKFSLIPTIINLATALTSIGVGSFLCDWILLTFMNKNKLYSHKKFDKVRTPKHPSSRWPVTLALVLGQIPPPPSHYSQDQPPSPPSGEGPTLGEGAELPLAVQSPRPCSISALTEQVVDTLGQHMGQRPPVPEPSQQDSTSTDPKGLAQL
Assay: rat P2X2/3 FLIPR calcium (Fluo-4) antagonist assay
Details: Rat P2X2/3 FLIPR Mean IC50 (nM), HEK-TREX cells, tetracycline-induced rat P2X3 with constitutive rat P2X2; agonist 500 nM α,β-methylene-ATP
observedProperty: IC50 (nM)

Completed entries (count: 2):
molecule	IC50 (nM)
CCN(Cc1cc2ccccc2cn1)c1nc(N2CCN(C(C)=O)CC2)nc2c1CN(C(C)C)C2=O	2160
CC(=O)N1CCN(c2nc(NCc3ccc4ncccc4c3)c3c(n2)C(=O)N(C(C)C)C3)CC1	13800

P: CC(=O)N1CCN(c2nc(N[C@H](C)c3cccc(C(F)(F)F)c3)c3c(n2)C(=O)N(C(C)C)C3)CC1
Q: CCC(C)N1Cc2c(NCc3cnn(-c4ccccc4)c3)nc(N3CCN(C(C)=O)CC3)nc2C1=O (single isomer, unassigned; (+)) [Example 306]
Query block: Field: lower recorded IC50 (choose P or Q ) Reply briefly: the label of your chosen item.
Result block: Q

###

Molecular target: hP2X3 (human Purinergic P2X receptors subtype 3), clone B (Homo sapiens)
Experiment: hP2X3 FLIPR calcium (Fluo-4) antagonist assay, clone B
Settings: Human P2X3 FLIPR Clone B IC50 (nM), RLE cells expressing hP2X3 clone B (NM_002559); agonist 500 nM α,β-methylene-ATP
observedProperty: IC50 (nM)

1: CC(C)N1Cc2c(NC(C)(C)Cc3ccc(Cl)cc3)nc(N3CCN(C)C(=O)C3)nc2C1=O
2: CCC(C)N1Cc2c(nc(N3CCN(C(C)=O)CC3)nc2N(CC)Cc2cc3ccccc3cn2)C1=O (single isomer, unassigned) [Example 318]
3: CC(C)N1Cc2c(NC(C)(C)Cc3ccc(Cl)cc3)nc(N3CCN(CC(=O)N(C)C)CC3)nc2C1=O
4: CC(=O)N1CCN(c2nc(NC(C)(C)Cc3ccc(F)cc3)c3c(n2)C(=O)N(C(C)C)C3)C(C)C1 (stereo not shown)
Query block: Rank the listed molecules, smallest IC50 first and largest last. Order the labels as requested and give them as your answer.
Result block: 2, 1, 4, 3

###

Target: hP2X3 (human Purinergic P2X receptors subtype 3), clone A (Homo sapiens)
Sequence (P56373 1-397): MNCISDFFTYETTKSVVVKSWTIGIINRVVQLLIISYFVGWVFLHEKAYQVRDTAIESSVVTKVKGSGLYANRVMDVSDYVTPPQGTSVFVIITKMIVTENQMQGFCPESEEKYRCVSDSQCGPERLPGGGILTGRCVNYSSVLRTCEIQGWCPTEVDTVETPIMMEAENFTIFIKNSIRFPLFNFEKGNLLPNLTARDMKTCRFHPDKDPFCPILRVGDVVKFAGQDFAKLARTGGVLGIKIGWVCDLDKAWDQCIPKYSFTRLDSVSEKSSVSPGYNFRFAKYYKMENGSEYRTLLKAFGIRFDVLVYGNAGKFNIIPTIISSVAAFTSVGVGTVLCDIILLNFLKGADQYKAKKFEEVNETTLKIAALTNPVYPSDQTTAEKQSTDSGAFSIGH
Experiment: hP2X3 FLIPR calcium (Fluo-4) antagonist assay, clone A
Settings: Human P2X3 FLIPR Clone A Mean IC50 (nM), RLE cells expressing hP2X3 clone A (AB016608); agonist 500 nM α,β-methylene-ATP
observedProperty: IC50 (nM)

P: CC(=O)N1CCN(c2nc(N[C@H](C)c3ccc(OC4CCC4)cc3)c3c(n2)C(=O)N(C(C)C)C3)CC1 [Example 191]
Q: CC(=O)N1CCN(c2nc(NC(C)c3ccc4c(c3)CC(C)O4)c3c(n2)C(=O)N(C(C)C)C3)CC1 (stereo not shown) [Example 324]
R: COCc1ccc([C@@H](C)Nc2nc(N3CCN(C(C)=O)CC3)nc3c2CN(C(C)C)C3=O)cc1F [Example 338]
Query block: Sequence the entries by IC50, beginning with the highest number. Order the labels as requested and give them as your answer.
Result block: R, Q, P

P: CC(=O)N1CCN(c2nc3c(c(N(C)C(C)c4ccc5ncccc5c4)n2)CN(C(C)C)C3=O)CC1 (single isomer, unassigned) [Example 260]
Q: CC(C)N1Cc2c(NC(C)(C)Cc3ccc(Cl)cc3)nc(N3CCN(C)C(=O)C3)nc2C1=O [Example 69]
Query block: Form field 'greater IC50' accepts P or Q ; which applies? Reply briefly: the label of your chosen item.
Result block: P
(P: 1900 nM, Q: 86.2 nM)

###

Molecular target: hP2X3 (human Purinergic P2X receptors subtype 3), clone B (Homo sapiens)
Assay: hP2X3 FLIPR calcium (Fluo-4) antagonist assay, clone B
Conditions: Human P2X3 FLIPR Clone B IC50 (nM), RLE cells expressing hP2X3 clone B (NM_002559); agonist 500 nM α,β-methylene-ATP
observedProperty: IC50 (nM)

compound	IC50 (nM)
CC(C)N1Cc2c(NCC(c3ccccc3)c3ccccc3)nc(NCCCN(C)C)nc2C1=O	4400
CC(=O)N1CCN(c2nc(NC(C)(C)Cc3cccc(C)c3)c3c(n2)C(=O)N(C(C)C)C3)CC1	830
CC(=O)N1CCN(c2nc(NC(C)c3ccc(Cl)cc3)c3c(n2)C(=O)N(C(C)C)C3)CC1 (centres unmarked)	750
CC(C)N1Cc2c(NCc3cnc4ccccc4c3)nc(NCC3CCOCC3)nc2C1=O	8400
CC(=O)N1CCN(c2nc3c(c(N4CCCC4Cc4ccc(C)cc4)n2)CN(C(C)C)C3=O)CC1 (centres unmarked)	130

1: CC(=O)N1CCN(c2nc(N[C@H](C)c3ccc(I)cc3)c3c(n2)C(=O)N(C(C)C)C3)CC1
2: Cc1ccc(C(Nc2nc(N3CCOCC3)nc3c2CN(C(C)C)C3=O)c2ccccc2)cc1 (centres unmarked)
Query block: Field: lower recorded IC50 (choose 1 or 2 ) Reply briefly: the label of your chosen item.
Result block: 1
(1: 43 nM, 2: 230 nM)
